All values here come from paper PMC9951844.

system.tested: SARS-CoV-2 Beta (B.1.351) S1 (SARS-CoV-2 Beta (B.1.351), strain)

{"columns": ["binder", "binding result"],
 "data": [
  ["YB13-208 (antibody, V domains shown) V domain 1: QITLKESGPTLVKPTQTLTLTCTFSGLSLSTSGVSVGWIRQPPGKAPEWLALIYWDDDKRYSPSLTSRLSITKDTSKNQVVLTMTNMDPVDTATYYCAHPRYYGDSSGYYWIWGQGTMVTVSS V domain 2: SYELTQPPSVSVSPGQTARITCSGDALPKQYAYWYQQKPGQAPVVVMYKTSERPSGIPERFSGSSSGTTVTLTISGVQAEDEADYYCQSADSSGFYVFGTGTQVTVL", "binds"],
  ["YB13-275 (antibody, V domains shown) V domain 1: QITLKESGPRLVKPTQTLTLTCTFSGFSLATAGMSVGWIRQPPGKALEWLALIYWDDDDRYSPSLKSRLTITKDTSRNQVVLTMTNMDPVDTATYYCIHPRFYSDPSGYYFIWGQGTMVTVSS V domain 2: SYELTQPPSVSVSPGQTARITCSGDALAKQYAYWYQQKPGQAPVQVMYKDGERPSGIPERFSGSKSGTTVTLTISAVQAEDEADYFCQSADNSGFYVFGTGTQVTVL", "binds"]
]}
